Assay: Clinical pharmacokinetics, plasma LC-MS/MS after single oral dose of AP capsules
Type: in vivo, human (healthy volunteers)
Details: human, plasma, oral, 2000 mg, S3; 1.50 h; 2000 mg AP capsules; read-out: Plasma concentration
# key: entry, value: concentration at 1.5 h

{"MOLECULE": "C=C1CC[C@@H]2[C@](C)(CO[C@@H]3O[C@H](CO)[C@@H](O)[C@H](O)[C@H]3O)CCC[C@@]2(C)[C@@H]1CCC1=CCOC1=O [neoandrographolide]", "concentration at 1.5 h": "50 ng/mL"}
{"MOLECULE": "C=C1CC[C@@H]2[C@](C)(CO)[C@H](O)CC[C@@]2(C)[C@@H]1C/C=C1/C(=O)OC[C@H]1O [andrographolide]", "concentration at 1.5 h": "14.2 ng/mL"}
{"MOLECULE": "C=C1CC[C@@H]2[C@](C)(CO)[C@H](O)CC[C@@]2(C)[C@@H]1CCC1=CCOC1=O [14-deoxyandrographolide]", "concentration at 1.5 h": "6.33 ng/mL"}
